B1: SLC2A12 (parent)
chain: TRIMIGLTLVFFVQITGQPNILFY

# Variants of: B1
# TEST PROTOCOL: protein stability index of a GFP-peptide fusion (GPS, HEK-293T) (PSI 1-6); higher = more stable;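 also: lentivirally expressed fusions sorted by FACS into six bins by GFP to DsRed ratio, PSI derived from sequencing read proportions per bin multiplied by bin number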
# CONDITION DESCRIPTION: c terminus: a fixed tail appended
Overview of reported protein stability index across a group of variants:

{"columns": ["CHAIN SEQUENCE", "protein stability index"],
 "data": [
  ["TRIMIGLTLVFFWQITGQPNILFY [V13W]", 2.85],
  ["TRIMIGLTLRFFVQITGQPNILFY [V10R]", 2.5]
]}

Task: Look at this variant and give its reported protein stability index. TRIMIGLMLVFFVQITGQPNILFY [T8M]
Output: 3.52

Task: Return reported protein stability index; argument: TRIAIGLTLVFFVQITGQPNILFY [M4A]
Output: 3.65

Task: Need protein stability index, item TRIMIGLTLVPFVQITGQPNILFY [F11P]
Output: 2.09

Task: # protein stability index lookup, item TRIMAGLTLVFFVQITGQPNILFY [I5A]
Output: 2.6

Task: Field request: protein stability index | item: TRIMHGLTLVFFVQITGQPNILFY [I5H]
Output: 3.25

Task: Can you share its protein stability index? I mean this variant: TRISIGLTLVFFVQITGQPNILFY [M4S]
Output: 3.75

Task: Give the measured protein stability index of TNIMIGLTLVFFVQITGQPNILFY [R2N] .
Output: 3.48

Task: Tell me the measured protein stability index of TRIMIGLTLVFFVQITGQPFILFY [N20F] , please.
Output: 2.45

// data source = the supplement of paper PMC10567573
